- test_summary: Cytotoxicity in PBM cells
- Format: cell-based
- condition_info: human
measured_metric: CC50

[
  {
    "compound": "CC(C)OC(=O)[C@H](C)N[P@](=O)(OC[C@H]1S[C@@H](n2ccc(N)nc2=O)[C@H](O)[C@@H]1O)Oc1ccccc1",
    "CC50": "> 100 µM"
  },
  {
    "compound": "O=c1nc(NO)ccn1[C@@H]1S[C@H](CO)C(O)C1O (stereo in doubt)",
    "CC50": "> 100 µM"
  }
]

Ask: I have this compound here, `Nc1ccn([C@@H]2S[C@H](CO)[C@@H](O)[C@H]2O)c(=O)n1` , and I need its recorded CC50.
Result: > 100 µM

====

- Tested on: HCoV-OC43
- test_summary: Anti-HCoV-OC43 activity
- Format: cell-based
- condition_info: Betacoronavirus 1, OC43; read-out: Anti-HCoV-OC43 Activity EC50
pEC50: −log10 of the molar value.
measured_metric: pEC50

Ask: I have this compound here, CCC(CC)COC(=O)[C@H](C)N[P@](=O)(OC[C@H]1O[C@@](C#N)(c2ccc3c(N)ncnn23)[C@H](O)[C@@H]1O)Oc1ccccc1 [Remdesivir, reference compound] , and I need its recorded pEC50.
Result: 7.52 to 8.15

====

- test_summary: Cytotoxicity in CEM cells
- Format: cell-based
- condition_info: human, CEM lymphoblastoid cells
Documented CC50 across a set of compounds
Entry rule: numbers only, all in µM.

Please review the following examples before continuing.
[
  {
    "compound": "O=c1ccn([C@@H]2S[C@H](CO)[C@@H](O)[C@H]2O)c(=O)[nH]1",
    "unit_tag": "µM",
    "endpoint_result": 20.5
  },
  {
    "compound": "O=c1nc(NO)ccn1[C@@H]1O[C@H](CO)[C@@H](O)[C@H]1O [NHC, N4-hydroxycytidine]",
    "unit_tag": "µM",
    "endpoint_result": 2.6
  },
  {
    "compound": "CCC(CC)COC(=O)[C@H](C)N[P@](=O)(OC[C@H]1O[C@@](C#N)(c2ccc3c(N)ncnn23)[C@H](O)[C@@H]1O)Oc1ccccc1 [Remdesivir, reference compound]",
    "unit_tag": "µM",
    "endpoint_result": 12
  }
]

Now for the compound whose CC50 we want.
Ask: I have this compound here, `Nc1ccn([C@@H]2S[C@H](CO)[C@@H](O)[C@H]2O)c(=O)n1` , and I need its recorded CC50.
Result: 28

====

- test_summary: in vitro
- condition_info: human, Caco-2
measured_metric: CC50 (µM)
Entry rule: numbers only, all in µM.

Ask: I have this molecule here, C[C@@H]1C[C@@H]([C@H](O)CC2CC(=O)NC(=O)C2)C(=O)[C@@H](C)C1 [cyclohexamide, Cycloheximide, reference compound] , and I need its recorded CC50.
Result: 10

====

- test_summary: Cytotoxicity in PBM cells
- Type: cell-based
- condition_info: human
measured_metric: CC50

[
  {
    "compound": "O=c1ccn([C@@H]2S[C@H](CO)[C@@H](O)[C@H]2O)c(=O)[nH]1",
    "CC50": "> 100 µM"
  }
]

Ask: I have this compound here, `CC(C)OC(=O)[C@H](C)N[P@](=O)(OC[C@H]1S[C@@H](n2ccc(=O)[nH]c2=O)[C@H](O)[C@@H]1O)Oc1ccccc1` , and I need its recorded CC50.
Result: > 100 µM

Ask: Now the compound CCC(CC)COC(=O)[C@H](C)N[P@](=O)(OC[C@H]1O[C@@](C#N)(c2ccc3c(N)ncnn23)[C@H](O)[C@@H]1O)Oc1ccccc1 [Remdesivir, reference compound]
Result: 6.4 µM

====

- test_summary: Cytotoxicity in Vero cells
- condition_info: African green monkey, Vero cells (kidney)
measured_metric: CC50 (µM)
Entry rule: numbers only, all in µM.

Please review the following examples before continuing.
[
  {
    "compound": "O=c1nc(NO)ccn1[C@@H]1O[C@H](CO)[C@@H](O)[C@H]1O [NHC, N4-hydroxycytidine]",
    "CC50 / µM": 16.5
  },
  {
    "compound": "O=c1ccn([C@@H]2S[C@H](CO)[C@@H](O)[C@H]2O)c(=O)[nH]1 [Compound 8]",
    "CC50 / µM": 68.3
  }
]

Ask: I have this compound here, Nc1ccn([C@@H]2S[C@H](CO)[C@@H](O)[C@H]2O)c(=O)n1 [Compound 9] , and I need its recorded CC50.
Result: 71.8

====

- System: mitochondrial DNA (COXII gene)
- test_summary: Mitochondrial toxicity in HepG2 cells (MtDNA / rDNA)
- condition_info: human, HepG2 cells
measured_metric: CC50 at 7 days

Ask: I have this molecule here, `O=c1ccn([C@@H]2S[C@H](CO)[C@@H](O)[C@H]2O)c(=O)[nH]1` , and I need its recorded CC50 at 7 days.
Result: > 100 µM

====

- Tested on: SARS-CoV-2
- test_summary: Anti-SARS-CoV-2 activity, 3D primary culture (Organoids)
- Type: cell-based
- condition_info: Severe acute respiratory syndrome coronavirus 2; 3D primary culture, organoids; read-out: Anti-SARS-CoV-2 Activity (Organoids) EC50
measured_metric: EC50
Kindly report the value followed by its unit.

Ask: I have this compound here, `O=c1ccn([C@@H]2S[C@H](CO)[C@@H](O)[C@H]2O)c(=O)[nH]1` , and I need its recorded EC50.
Result: 700 nM

====

- Tested on: SARS-CoV-2
- test_summary: Anti-SARS-CoV-2 activity, 3D primary culture (Organoids)
- Format: cell-based
- condition_info: Severe acute respiratory syndrome coronavirus 2, read-out: Anti-SARS-CoV-2 Activity (Organoids) EC50
measured_metric: EC50 (nM)
Entry rule: numbers only, all in nM.

Ask: I have this compound here, CCC(CC)COC(=O)[C@H](C)N[P@](=O)(OC[C@H]1O[C@@](C#N)(c2ccc3c(N)ncnn23)[C@H](O)[C@@H]1O)Oc1ccccc1 [Remdesivir, reference compound] , and I need its recorded EC50.
Result: 700

====

- Tested on: HCoV-OC43
- test_summary: Anti-HCoV-OC43 activity
- Type: cell-based
- condition_info: Betacoronavirus 1, OC43, read-out: Anti-HCoV-OC43 Activity EC50
measured_metric: EC50

Ask: I have this compound here, `O=c1ccn([C@@H]2S[C@H](CO)[C@@H](O)[C@H]2O)c(=O)[nH]1` , and I need its recorded EC50.
Result: 2200 to 2500 nM

====

- Test system: SARS-CoV-2
- test_summary: Anti-SARS-CoV-2 activity (Calu3)
- Assay type: cell-based
- condition_info: Severe acute respiratory syndrome coronavirus 2, Calu-3, 72 h
measured_metric: pEC50
Here pEC50 is given on a logarithmic scale as minus log10 of the concentration in mol/L.

Ask: I have this compound here, CCC(CC)COC(=O)[C@H](C)N[P@](=O)(OC[C@H]1O[C@@](C#N)(c2ccc3c(N)ncnn23)[C@H](O)[C@@H]1O)Oc1ccccc1 [Remdesivir, reference compound] , and I need its recorded pEC50.
Result: 7.00

====

- test_summary: in vitro
- condition_info: human
measured_metric: CC50 (µM)
Entry rule: numbers only, all in µM.

Ask: I have this molecule here, C[C@@H]1C[C@@H]([C@H](O)CC2CC(=O)NC(=O)C2)C(=O)[C@@H](C)C1 [cyclohexamide, Cycloheximide, reference compound] , and I need its recorded CC50.
Result: 10

====

- test_summary: Cytotoxicity in Vero cells
- condition_info: African green monkey, Vero cells (kidney)
measured_metric: CC50

Please review the following examples before continuing.
[
  {
    "molecule": "CC(C)OC(=O)[C@H](C)N[P@](=O)(OC[C@H]1S[C@@H](n2ccc(=O)[nH]c2=O)[C@H](O)[C@@H]1O)Oc1ccccc1 [Compound 13]",
    "endpoint_result": "> 100 µM"
  },
  {
    "molecule": "O=c1nc(NO)ccn1[C@@H]1S[C@H](CO)C(O)C1O (stereo in doubt) [Compound 17]",
    "endpoint_result": "> 100 µM"
  }
]

Now for the molecule whose CC50 we want.
Ask: I have this molecule here, CC(C)OC(=O)[C@H](C)N[P@](=O)(OC[C@H]1S[C@@H](n2ccc(N)nc2=O)[C@H](O)[C@@H]1O)Oc1ccccc1 [Compound 16] , and I need its recorded CC50.
Result: > 100 µM

Data origin, for the record: patent US20240216413A1
